Test system: SR leukemia
Assay: NCI tumour cell line growth inhibition, 48 h
Below, each entry is listed alongside its reported TGI.

Example compounds with recorded TGI:
In [3]: df
Out[3]:
                                   compound  observed_value
0                 CC(C)Sc1nncc(/C(N)=N/O)n1        > 100 µM
1  c1ccc2c(c1)CN1CCCC1CN2 (stereo not drawn)        > 100 µM

Kindly consider the entry below.
Exam item: Please give the measured TGI for this compound: O=S(CCc1ccccc1)Nc1ccccc1 (stereo not drawn)
Marked response: > 100 µM

* * *

Test system: MOLT-4 leukemia
Assay: NCI tumour cell line growth inhibition, 48 h
Test Readout: TGI

The following compounds have reported results that may help.
                               smiles_input  observed_value
0  Cc1cc2nc3c4cc(C=O)ccc4n(CCN(C)C)c3nc2cc1C         10.3 µM
1           O=C(O)c1ccc(C=C2Sc3ccccc3S2)cc1        > 100 µM

Exam item: Request the reported TGI associated with `Clc1ccc(-c2noc(CN3CCCCC3)n2)cc1`
Marked response: > 100 µM

Data provenance: PubChem BioAssay (NCI)
